system under test: SARS-COV-2 RBD-MMH (SARS-COV-2 RBD extracellular domain with C-terminal myc-myc-hexahistidine tag) (SARS-CoV-2)
assay text: SPR 37C, mAb captured, pH 7.4 vs pH 6.0
Task for the reader: assign each of the following binders its reported t½ Ratio of pH 7.4 to pH 6.0.
Numbers only.

mAb14255 (antibody, V domains shown) VH: QVQLQESGPGLVKPSETLSLTCTVSGGSISGYYWSWIRQPPGKGLDWIGYIYYRGNTNYNPSLKSRVTISVDTSNNQFSLKLSSVTAADTAVYYCARYGEGYGDASGYHFDYWGQGTLVTVSS VL: QSALTQPASVSGSPGQSITISCTGTSSDVGSYNLVSWYQQHPGKAPKLMIYEDSKRPSGVANPFSGSKSGNTASLTISGLQAEDEADYYCSSYAGSSTWVFGGGTKLTVLG	1
mAb14315 (antibody, V domains shown) VH: QVQLVQSGAEVKKPGSSVKVSCKASGDTFSTYAINWVRQAPGQGLEWMGRFIHIFGTANYAQKFQGRVTITADESTSTAYMELRSLRSEDTAVYYCARDGVDYGDYRPDYWGQGTLVTVSS VL: EIVLTQSPGTLSLSPGERATLSCRASQSVSSNYLAWYQQKPGQAPRLLIYGASSRATGIPERFSGSGSGTDFTLTISRLEPEDFAVYYCQQYGSSLYTFGQGTKLEIKR	1

Here is another binder to look at.
Reported t½ Ratio of pH 7.4 to pH 6.0 for mAb15163 (antibody, V domains shown) VH: EVQLVETGGGLIQPGESLRLSCAASGFIVSTNYMNWVRQAPGKGLEWVSVIYRGGSTYYADSVKGRFTISRDNSKNTLFLQMNSLRAEDTAVYYCARGHEDFDYDTPASGAFDIWGQGTMVTVSS VL: QSALTQPPSASGSPGQSVTISCTGTSSDVGGHNYVSWYQQHPGKAPKVMIYEVSKRPSGVPDRFSGSKSGNTASLTVSGLQAEDEADYYCSSYAGSNKFVFGTGTKVTVLG : what is it?
2.1
